B1: TPR t1 (parent)
chain: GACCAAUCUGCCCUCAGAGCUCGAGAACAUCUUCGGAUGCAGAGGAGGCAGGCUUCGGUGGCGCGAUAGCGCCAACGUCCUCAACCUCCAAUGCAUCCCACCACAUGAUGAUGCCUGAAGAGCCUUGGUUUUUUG

- Variants of: B1
- ASSAY NAME: polymerase ribozyme fitness, log enrichment relative to wild type (log ratio); higher = more active; in vitro selection for triplet polymerase activity

{"VAR": "A18U G42U G63C A66G C123U", "polymerase ribozyme fitness (log ratio)": -4.29}
{"VAR": "C12G G51C G71A", "polymerase ribozyme fitness (log ratio)": -6.1}
{"VAR": "C64U G120U C123G", "polymerase ribozyme fitness (log ratio)": 1.13}
{"VAR": "C12A A41U A43U C104U U129G", "polymerase ribozyme fitness (log ratio)": -4.67}
{"VAR": "C12G A26U C114A", "polymerase ribozyme fitness (log ratio)": -6.59}
{"VAR": "A6U G19C C82U C94A A111C", "polymerase ribozyme fitness (log ratio)": -4.5}
{"VAR": "U9C G58A A100U", "polymerase ribozyme fitness (log ratio)": -0.581}

Data origin, for the record: the RNAGym collection of RNA variant scans (doi:10.1073/pnas.2313332121)
